assay: NCI Yeast Anticancer Drug Screen. Data for the rad18 strain (AID 177); details: S. cerevisiae rad18 mutant growth inhibition; at 1.2 µM; hits give high values
Compounds without any hit were thinned out: in the full panel of roughly 79,000, 15% have a hit.
experimental_endpoint: growth inhibition (%)

> print(dat)
                                    compound  experimental.value
 1             COc1ccc(O)c(/C=N\Nc2ccccc2)c1                  -9
 2     Cc1ccc(Cl)c2[nH]c(-c3ccccc3)cc(=O)c12                  -5
 3         N#Cc1c(N)[nH]c2ccc(Sc3ccccc3)cc12                  12
 4          CCN(CC)C(C)(C)C(=O)/C=C/c1ccccc1                   1
 5              N#CN=Nc1cc(Cl)c(N=NC#N)cc1Cl                  -8
 6     c1ccc2c(c1)C(=NCCCN1CCCCCC1)c1cccn1-2                  -1
 7   COC(=O)c1cc(-c2ccc(C)cc2)[nH]c(=O)c1C#N                 -17
 8                NC(=S)N/N=C\c1nccc2ccccc12                  -1
 9  O=C(NNc1ccnc2cc(Cl)ccc12)/C(=C\c1ccccc1Cl)NC(=O)c1ccccc1                  -1
10  CC(C)NC(=O)OCc1c(COC(=O)NC(C)C)c(-c2ccc(Cl)c(Cl)c2)n2c1CCC2                 -17
11         CC(C)/C(Cl)=N\OC(=O)Nc1cccc(Cl)c1                  -7
12  O=C(O)c1cccc(-c2c3ccc(=O)cc-3oc3cc(O)ccc23)c1                  -3
13  Cc1ccc(C2C(Cl)C(=O)N2n2cnc3ccccc3c2=O)cc1 (centres undefined)                  -1
14                 Cn1c(=O)c2ccccc2c2ccccc21                   2

Where do these numbers come from? They come from PubChem BioAssay (NCI).
